B1: library; numbered along this chain (parent)
chain: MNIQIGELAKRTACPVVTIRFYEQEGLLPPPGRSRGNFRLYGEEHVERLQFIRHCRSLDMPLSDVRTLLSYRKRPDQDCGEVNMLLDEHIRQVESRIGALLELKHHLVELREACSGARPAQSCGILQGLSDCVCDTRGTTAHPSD

Variants of: B1
Assay: sfGFP reporter fluorescence (15 h) (µM FITC); higher = stronger transcriptional activation
Settings: library round: Round 1; ligand: 1 µM Pb
VALUE_TYPE: sfGFP reporter fluorescence
Lab note: write the figure by itself, no unit.

N83T D135V: 0.0727
D131F D135A: 0.071
N83T C123L: 0.0586
Q121A D135A: 0.0888
N83T D135A P143A: 0.0748
N83M D131A: 0.0845

Request: Quick check: sfGFP reporter fluorescence of D64K I97A ?
Response: 0.581

Request: Would you kindly repeat that for D131H D135P ?
Response: 0.0988

Request: Same question, D64K I97S this time
Response: 0.216

Request: Next variant: N83T L107C D135A P143T
Response: 0.642

Request: Continue with H105A I125A
Response: 0.0639
